- measurement.target: rat mGlu 5a receptor (Rattus norvegicus)
- Sequence (P31424 21-1171 isoform P31424-2 limits assumed): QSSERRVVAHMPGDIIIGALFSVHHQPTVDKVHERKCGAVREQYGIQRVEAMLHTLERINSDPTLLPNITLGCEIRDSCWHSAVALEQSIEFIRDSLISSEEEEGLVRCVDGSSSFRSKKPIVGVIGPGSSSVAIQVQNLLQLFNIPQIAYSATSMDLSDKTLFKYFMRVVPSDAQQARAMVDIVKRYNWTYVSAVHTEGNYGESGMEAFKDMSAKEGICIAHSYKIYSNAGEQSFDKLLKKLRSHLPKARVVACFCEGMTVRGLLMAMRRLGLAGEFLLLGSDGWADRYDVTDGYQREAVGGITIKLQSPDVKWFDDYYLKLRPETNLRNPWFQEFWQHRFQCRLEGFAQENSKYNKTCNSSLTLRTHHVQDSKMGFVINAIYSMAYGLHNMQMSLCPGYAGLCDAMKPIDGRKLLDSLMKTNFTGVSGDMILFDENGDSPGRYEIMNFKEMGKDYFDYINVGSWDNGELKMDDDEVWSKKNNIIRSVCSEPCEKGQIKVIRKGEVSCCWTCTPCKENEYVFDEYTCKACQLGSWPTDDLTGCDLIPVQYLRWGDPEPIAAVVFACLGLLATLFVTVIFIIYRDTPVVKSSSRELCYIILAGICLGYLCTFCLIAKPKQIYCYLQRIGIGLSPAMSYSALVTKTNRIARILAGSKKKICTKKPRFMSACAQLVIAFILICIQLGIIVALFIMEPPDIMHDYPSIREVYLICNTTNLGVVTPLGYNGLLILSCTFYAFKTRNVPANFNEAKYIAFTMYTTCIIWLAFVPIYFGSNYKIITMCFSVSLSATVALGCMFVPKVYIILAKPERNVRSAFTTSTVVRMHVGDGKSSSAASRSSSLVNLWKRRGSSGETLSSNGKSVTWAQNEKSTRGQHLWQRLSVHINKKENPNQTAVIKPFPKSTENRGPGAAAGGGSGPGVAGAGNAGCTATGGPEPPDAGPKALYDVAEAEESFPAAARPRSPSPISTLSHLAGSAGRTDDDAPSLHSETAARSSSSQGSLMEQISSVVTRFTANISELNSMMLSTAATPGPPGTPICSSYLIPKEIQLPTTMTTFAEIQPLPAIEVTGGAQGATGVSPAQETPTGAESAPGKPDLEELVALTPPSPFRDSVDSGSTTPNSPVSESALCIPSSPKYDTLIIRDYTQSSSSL
- method.summary: [Ca2+]i measurement (FLIPR) on mGlu 5a transfected EBNA cells, antagonist mode
- study.conditions: rat mGlu 5a transiently transfected EBNA cells, Fluo 3-AM, tested against 10 μM glutamate as agonist
pIC50: −log10 of the molar value.
value.kind: pIC50

{"line.notation": "CCOC(=O)c1c(C)nc(C#Cc2ccccc2)n1C", "value.kind": "pIC50", "assay.value": 6.60}
{"line.notation": "CCOC(=O)c1c(C)nc(C#Cc2ccc(F)cc2)n1C", "value.kind": "pIC50", "assay.value": 6.60}
